target: T1, Claudin 18.2 (CLDN18.2), expressed on CHOS-CLDN 18.2 / HEK293-CLDN 18.2 / HCC827-CLDN 18.2 cells (human, UniProt P56856-2 1-261); test: FACS, CHOS-CLDN18.2 cells
T1 construct: whole, on cells; The species is not repeated for the CHOS-CLDN 18.2 cells; also called claudin-18A2
Property: max; scope: individual binders
// return just the number, without any unit appended

INSERT INTO assay_data (binder, metric, result_value) VALUES
  ('QP14451442 (antibody, human IgG1, kappa, V domains shown, Humanized from QP192193) VH: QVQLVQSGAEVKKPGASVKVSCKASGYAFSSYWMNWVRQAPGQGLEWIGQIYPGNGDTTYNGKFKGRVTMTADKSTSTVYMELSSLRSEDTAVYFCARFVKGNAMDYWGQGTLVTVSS VL: DIVMTQSPDSLAVSLGERATISCKSSQSLLNSGNQKNYLTWYQQKPGQPPKMLIYWASTRESGVPDRFSGSGSGIDFTLTISSVQAEDVAVYYCQNAYSYPFTFGQGTKLEIKR', 'max', 177000),
  ('QP14441441 (antibody, human IgG1, kappa, V domains shown, Humanized from QP192193) VH: QVQLVQSGAEVKKPGASVKVSCKASGYAFSSYWMNWVRQAPGQGLEWIGQIYPGNGDTTYNGKFKGRVTMTADKSTSTVYMELSSLRSEDTAVYYCARFVKGNAMDYWGQGTLVTVSS VL: DIVMTQSPDSLAVSLGERATISCKSSQSLLNSGNQKNYLTWYQQKPGQPPKLLIYWASTRESGVPDRFSGSGSGIDFTLTISSVQAEDVAVYYCQNAYSYPFTFGQGTKLEIKR', 'max', 175000);

The record that follows has no max shown yet.
Answer with reported max of QP192193 (antibody, human IgG1, V domains shown, Chimeric; also called 40F1; mouse-derived chimeric antibody QP192193) VH: QVQLQQSGAELVRPGSSVKISCKASGYAFSSYWMNWVKQRPGQGLEWIGQIYPGNGDTTYNGKFKGQATLTADKSSSTVYMQLSSLTSEDSAVYFCARFVKGNAMDYWGQGTSVTVSS VL: DIVMTQSPSSLTVTAGEKVTMSCKSSQSLLNSGNQKNYLTWYQQNPGQPPKMLIYWASTRESGVPDRFTGSGSGIDFSLTISSVQAEDLALYYCQNAYSYPFTFGSGTKLEIK
177000

Origin of measurements: patent US20230183352A1
